- assay_name: Bioavailability in rat at 1 mg/kg, iv
- Assay type: ADME, organism-based
- settings: in vivo, po 2 mg/kg vs iv 1 mg/kg
Please respond with reported bioavailability for every item in the list.
Give bare numbers, in %.

Use the examples below as a reference point.
Cc1ccc([C@H](C)NC(=O)Cn2nnc3ccccc3c2=O)cc1 = 27
COc1cccc2nnn(CC(=O)N[C@@H](C)c3ccc(C)cc3)c(=O)c12 = 50

Provide bioavailability values for the following items, in order.
1. C[C@H](NC(=O)Cn1nnc2ccccc2c1=O)c1ccc(OC(F)(F)F)cc1
2. COc1ccc2nnn(CC(=O)N[C@@H](C)c3ccc(C)cc3)c(=O)c2c1

[100, 2]
